Target: Human AhR (Homo sapiens, UniProt P35869)
Experiment: Transactivation assay in human cell line (in vitro assay 1: antagonism)
Conditions: U87 glioblastoma cells, AHR inducible (DRE) firefly luciferase reporter, 150 μM kynurenic acid, 20 hours
property-measured: log10 IC50 (log10 of the value in nM)
The common logarithm of IC50 in nM is what is listed.

> print(dat)
                                   compound  value.measured
1  Cc1nn(C)cc1-c1nc(C(=O)NCC(C)(C)O)cc(-c2ccc(OC(F)(F)F)cc2)n1            0.91

Look up log10 IC50 for this compound: CC(C)Cn1cc(-c2nc(C(=O)N[C@@H](C)CO)cc(-c3ccc(Cl)cc3)n2)cn1
3.07

Note, next up: Cn1cc(-c2nc(C(=O)N[C@@H]3CS(=O)(=O)C[C@@H]3O)cc(-c3ccc(OC(F)(F)F)cc3)n2)cn1 (relative stereo)
1.31

Try this compound next: C[C@@H](CO)NC(=O)c1cc(-c2ccc(Cl)cc2)nc(-c2ccc(C#N)nc2)n1
2.87

Try this compound next: C[C@@H](CO)NC(=O)c1cc(-c2ccc(Cl)cc2)nc(-c2cnn(C3CC3)c2)n1
3.08

Another: Cn1nccc1-c1nc(C(=O)NCC(C)(C)O)cc(-c2ccc(Cl)cc2)n1
1.56

// next record CC(C)(O)CNC(=O)c1cc(-c2ccc(Cl)cc2)nc(-c2cc[nH]n2)n1
2.52

Okay, and C[C@H](CO)NC(=O)c1cc(-c2ccc(OC(F)(F)F)cc2)nc(-c2cccnc2)n1 ?
0.46

====

Target: Human AhR (Homo sapiens, UniProt P35869)
Sequence (P35869 11-848): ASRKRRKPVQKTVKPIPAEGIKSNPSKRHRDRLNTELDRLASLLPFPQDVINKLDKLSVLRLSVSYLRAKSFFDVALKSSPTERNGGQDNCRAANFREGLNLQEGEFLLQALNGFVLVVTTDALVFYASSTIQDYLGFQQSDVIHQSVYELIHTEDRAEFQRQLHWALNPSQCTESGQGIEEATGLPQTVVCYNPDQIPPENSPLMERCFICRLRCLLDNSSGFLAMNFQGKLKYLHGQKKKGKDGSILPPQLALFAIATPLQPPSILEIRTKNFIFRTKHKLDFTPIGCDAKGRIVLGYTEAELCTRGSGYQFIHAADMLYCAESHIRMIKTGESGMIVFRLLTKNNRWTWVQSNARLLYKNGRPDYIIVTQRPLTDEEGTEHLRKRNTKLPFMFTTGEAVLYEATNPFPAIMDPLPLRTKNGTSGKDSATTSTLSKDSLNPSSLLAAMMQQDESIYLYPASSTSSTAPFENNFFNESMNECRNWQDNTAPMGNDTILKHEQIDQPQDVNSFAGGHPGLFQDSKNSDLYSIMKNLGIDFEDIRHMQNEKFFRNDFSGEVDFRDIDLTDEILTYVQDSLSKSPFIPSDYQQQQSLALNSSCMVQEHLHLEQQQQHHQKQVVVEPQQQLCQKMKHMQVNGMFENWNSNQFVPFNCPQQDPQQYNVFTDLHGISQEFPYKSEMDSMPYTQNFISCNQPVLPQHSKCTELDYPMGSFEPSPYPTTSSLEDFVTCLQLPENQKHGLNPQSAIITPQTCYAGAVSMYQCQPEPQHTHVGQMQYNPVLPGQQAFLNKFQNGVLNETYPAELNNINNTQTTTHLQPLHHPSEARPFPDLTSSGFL
Experiment: Transactivation assay in human cell line (in vitro assay 1: antagonism)
Conditions: U87 glioblastoma cells, AHR inducible (DRE) firefly luciferase reporter, 150 μM kynurenic acid, 20 hours
Procedure: Transactivation Assay in Human Cell Line (In Vitro Assay 1) Transactivation assay was carried out in U87 glioblastoma cells (ATCC) endogenously expressing AHR. […] Firefly luciferase and Renilla activity was determined by the DualGlo Luciferase Assay System (Promega, #2920). […]
Kindly apply the following: MET if IC50 is less than 4 nM, NOT MET in every other case.

> print(dat)
                                   compound                              study.system  classification
1  Cn1cc(-c2nc(C(=O)N[C@H]3CCC[C@H]3O)cc(-c3ccc(OC(F)(F)F)cc3)n2)cn1 (relative stereo)  Human AhR (Homo sapiens, UniProt P35869)             MET
2  C[C@@H](CO)NC(=O)c1cc(-c2ccc(OC(F)(F)F)cc2)nc(-c2cnn(C)c2)n1  Human AhR (Homo sapiens, UniProt P35869)             MET
3  C[C@@H](CO)NC(=O)c1cc(-c2ccc(OC(F)(F)F)cc2)nc(-c2cccs2)n1  Human AhR (Homo sapiens, UniProt P35869)         NOT MET
4  COc1ccc(-c2nc(C(=O)NCC(C)(C)O)cc(-c3ccc(OC(F)(F)F)cc3)n2)cn1  Human AhR (Homo sapiens, UniProt P35869)         NOT MET
5  Cc1cscc1-c1nc(C(=O)N[C@@H](C)CO)cc(-c2ccc(OC(F)(F)F)cc2)n1  Human AhR (Homo sapiens, UniProt P35869)         NOT MET
6  COc1ccncc1-c1nc(C(=O)N[C@@H](C)CO)cc(-c2ccc(OC(F)(F)F)cc2)n1  Human AhR (Homo sapiens, UniProt P35869)         NOT MET

Does Cc1noc(C)c1-c1nc(C(=O)N[C@@H](C)CO)cc(-c2ccc(OC(F)(F)F)cc2)n1 have IC50 strictly under 4 nM?
NOT MET

Where do these numbers come from? They come from patent US11304946B2.
